target: Streptavidin (Streptomyces avidinii); test: compounds binding control protein streptavidin – biophysical, small-molecule microarray, 635/667 nm fluorescence, artefact control for SMM compound annotation, primary screen (AID 1147); conditions: higher = more signal;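 note: signal reflects streptavidin binding to arrayed compounds as a control protein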
PROPERTY LABEL: composite z-score
Just the number.

Challenge: API: value(readout= composite z-score, system= Streptavidin (Streptomyces avidinii), query= C=C[C@@H](CO)N(Cc1ccc(OC)cc1)S(=O)(=O)c1ccc(Br)cc1 )
Response given: 0.396

Challenge: Record: COC(=O)C(CC#Cc1ccc2c(c1)[C@]1(C(=O)N2)[C@H](c2ccc(O)cc2)N2[C@H](c3ccccc3)[C@H](c3ccccc3)OC(=O)[C@H]2[C@@H]1C(=O)NC[C@H](O)c1ccccc1)C(=O)OC
Response given: 0.379

Challenge: Record: COc1ccc([C@H]2OC[C@@H]3C[C@H](Cc4ccccc4)C(=O)N32)cc1
Response given: -0.371

Challenge: Record: COc1ccc([Si](C)(C)[C@H]2[C@H](CC(=O)N3Cc4ccccc4C[C@H]3CO)O[C@@]3(C(=O)N(Cc4ccc(N5CCOC5=O)cc4)c4ccccc43)[C@@H]2C)cc1
Response given: -0.0564

Challenge: Record: CCCCN1CC=CC23O[C@@H]4/C=C\CCC(C)OC(=O)C4[C@H]2C(=O)N(CCCO)[C@@H]3C1=O (stereo partly specified)
Response given: -0.774

Challenge: Record: [N-]=[N+]=Nc1ccccc1C[C@@]1(C(N)=O)N=C(c2ccc(OCCCO)cc2)O[C@@H]1c1ccccc1N=[N+]=[N-]
Response given: 0.823
